These entries and their values trace back to patent US9549886B2.

assay: Miscibility of alkyl ketal esters with water and organic compounds; type: physicochemical; details: 25° C. unless stated otherwise
reportedMetric: miscible with water

> print(dat)
                                   molecule       reportedmetric         measurement
1  CCOC(=O)CCC1(C)OCC(CO)O1 (stereo not shown) [ethyl-LGK]  miscible with water  in all proportions
2  COC(=O)CCC1(C)OCC(CO)O1 (stereo not shown) [methyl-LGK]  miscible with water  in all proportions
3  COC(=O)CC1(C)OCC(CO)O1 (stereo not shown) [Me-AcAcGK]  miscible with water  in all proportions
4  CCOC(=O)CC1(C)OCC(CO)O1 (stereo not shown) [Et-AcAcGK]  miscible with water  in all proportions
